These data points were gathered from patent US20250345277A1.

# Test system: PBMC cells
# assay: In vitro transfection of PBMC cells with EGFP mRNA LNP preparation (flow cytometry)
# Type: cell-based
# Design: concentration or dose not given beside the values
# reported conditions: PBMCs, LNP preparation added with ApoE4
Cell Viability overview
readout kind: Cell Viability (%)

molecule	assay result
CCCCCCCCCCCCC(O)CN(CCN(CCN1CCN(C)CC1)CCN(CC(O)CCCCCCCCCCCC)CC(O)CCCCCCCCCCCC)CC(O)CCCCCCCCCCCC (centres unmarked)	86.50
CCCCCCCCCCCCCCCCC(O)CC(CCOCCOCCOCCN(CCOCCOCCOCCN(CC(O)CCCCCCCCCCCCCCCC)CC(O)CCCCCCCCCCCCCCCC)CCN1CCN(CCOCCOCCOCCN(CC(O)CCCCCCCCCCCCCCCC)CC(O)CCCCCCCCCCCCCCCC)CC1)CC(O)CCCCCCCCCCCCCCCC (centres unmarked)	83.30
CCCCCCCCCCC(O)CN(CCOCCOCCOCCN(CCOCCOCCOCCN(CC(O)CCCCCCCCCC)CC(O)CCCCCCCCCC)CCN1CCN(CCOCCOCCOCCN(CC(O)CCCCCCCCCC)CC(O)CCCCCCCCCC)CC1)CC(O)CCCCCCCCCC (centres unmarked)	85.60
CCCCCCCCCCCCC(O)CN(CCN1CCN(CCN(CCN(CC(O)CCCCCCCCCCCC)CC(O)CCCCCCCCCCCC)CCN(CC(O)CCCCCCCCCCCC)CC(O)CCCCCCCCCCCC)CC1)CC(O)CCCCCCCCCCCC (centres unmarked)	91.20
CCCCCCCCCCC(O)CN(CCN1CCN(CCN(CCN(CC(O)CCCCCCCCCC)CC(O)CCCCCCCCCC)CCN(CC(O)CCCCCCCCCC)CC(O)CCCCCCCCCC)CC1)CC(O)CCCCCCCCCC (centres unmarked)	89.70

====

Positive Rate (EGFP) overview
# System: DC2.4 cells
# assay: In vitro transfection of DC2.4 cells with EGFP mRNA LNP preparation (flow cytometry)
# Format: cell-based, mouse
# reported conditions: DC2.4 cells, EGFP mRNA LNP, 200 ng mRNA per well, flow cytometry
readout kind: Positive Rate (EGFP) (%)

compound	readout kind	unit spec	assay result
CCCCCCCCCCCCCCC(O)CN(CCOCCOCCN(CCOCCOCCN(CC(O)CCCCCCCCCCCCCC)CC(O)CCCCCCCCCCCCCC)CCN1CCN(C)CC1)CC(O)CCCCCCCCCCCCCC (centres unmarked)	Positive Rate (EGFP)	%	79.6
CCCCCCCCCCCCCCC(O)CN(CCOCCOCCN(CCOCCOCCN(CC(O)CCCCCCCCCCCCCC)CC(O)CCCCCCCCCCCCCC)CCN1CCN(CCO)CC1)CC(O)CCCCCCCCCCCCCC (centres unmarked)	Positive Rate (EGFP)	%	60.2
CCCCCCCCCCC(O)CN(CCOCCN(CCOCCN(CC(O)CCCCCCCCCC)CC(O)CCCCCCCCCC)CCN1CCN(CCO)CC1)CC(O)CCCCCCCCCC (centres unmarked)	Positive Rate (EGFP)	%	62.6
CCCCCCCCCCC(O)CN(CCN1CCN(CCN(CCN(CC(O)CCCCCCCCCC)CC(O)CCCCCCCCCC)CCN(CC(O)CCCCCCCCCC)CC(O)CCCCCCCCCC)CC1)CC(O)CCCCCCCCCC (centres unmarked)	Positive Rate (EGFP)	%	73.3
CCCCCCCCCCC(O)CN(CCN(CCN1CCN(C)CC1)CCN(CC(O)CCCCCCCCCC)CC(O)CCCCCCCCCC)CC(O)CCCCCCCCCC (centres unmarked)	Positive Rate (EGFP)	%	56.4
CCCCCCCCCCC(O)CN(CCOCCOCCN(CCOCCOCCN(CC(O)CCCCCCCCCC)CC(O)CCCCCCCCCC)CCN1CCN(CCOCCOCCN(CC(O)CCCCCCCCCC)CC(O)CCCCCCCCCC)CC1)CC(O)CCCCCCCCCC (centres unmarked)	Positive Rate (EGFP)	%	64.4
CCCCCCCCCCCCCCCCC(O)CN(CCN(CCN1CCN(CCO)CC1)CCN(CC(O)CCCCCCCCCCCCCCCC)CC(O)CCCCCCCCCCCCCCCC)CC(O)CCCCCCCCCCCCCCCC (centres unmarked)	Positive Rate (EGFP)	%	66.4
CCCCCCCCCCCCCCCCC(O)CN(CCOCCN(CCOCCN(CC(O)CCCCCCCCCCCCCCCC)CC(O)CCCCCCCCCCCCCCCC)CCN1CCN(C)CC1)CC(O)CCCCCCCCCCCCCCCC (centres unmarked)	Positive Rate (EGFP)	%	61.5
CCCCCCCCCCCCCCC(O)CN(CCOCCN(CCOCCN(CC(O)CCCCCCCCCCCCCC)CC(O)CCCCCCCCCCCCCC)CCN1CCN(C)CC1)CC(O)CCCCCCCCCCCCCC (centres unmarked)	Positive Rate (EGFP)	%	60.3
CCCCCCCCCCC(O)CN(CCOCCOCCOCCN(CCOCCOCCOCCN(CC(O)CCCCCCCCCC)CC(O)CCCCCCCCCC)CCN1CCN(CCOCCOCCOCCN(CC(O)CCCCCCCCCC)CC(O)CCCCCCCCCC)CC1)CC(O)CCCCCCCCCC (centres unmarked)	Positive Rate (EGFP)	%	65.6
CCCCCCCCCCCCC(O)CN(CCOCCOCCOCCN(CCOCCOCCOCCN(CC(O)CCCCCCCCCCCC)CC(O)CCCCCCCCCCCC)CCN1CCN(CCOCCOCCOCCN(CC(O)CCCCCCCCCCCC)CC(O)CCCCCCCCCCCC)CC1)CC(O)CCCCCCCCCCCC (centres unmarked)	Positive Rate (EGFP)	%	96.7
CCCCCCCCCCCCCCCCC(O)CN(CCOCCOCCN(CCOCCOCCN(CC(O)CCCCCCCCCCCCCCCC)CC(O)CCCCCCCCCCCCCCCC)CCN1CCN(CCO)CC1)CC(O)CCCCCCCCCCCCCCCC (centres unmarked)	Positive Rate (EGFP)	%	74.7
CCCCCCCCCCC(O)CN(CCOCCOCCOCCN(CCOCCOCCOCCN(CC(O)CCCCCCCCCC)CC(O)CCCCCCCCCC)CCN1CCN(CCO)CC1)CC(O)CCCCCCCCCC (centres unmarked)	Positive Rate (EGFP)	%	58.1
CCCCCCCCCCC(O)CN(CCOCCOCCOCCN(CCOCCOCCOCCN(CC(O)CCCCCCCCCC)CC(O)CCCCCCCCCC)CCN1CCN(C)CC1)CC(O)CCCCCCCCCC (centres unmarked)	Positive Rate (EGFP)	%	74.3
CCCCCCCCCCCCCCCCC(O)CC(CCOCCOCCOCCN(CCOCCOCCOCCN(CC(O)CCCCCCCCCCCCCCCC)CC(O)CCCCCCCCCCCCCCCC)CCN1CCN(CCOCCOCCOCCN(CC(O)CCCCCCCCCCCCCCCC)CC(O)CCCCCCCCCCCCCCCC)CC1)CC(O)CCCCCCCCCCCCCCCC (centres unmarked)	Positive Rate (EGFP)	%	64.4
CCCCCCCCCCCCC(O)CN(CCN1CCN(CCN(CCN(CC(O)CCCCCCCCCCCC)CC(O)CCCCCCCCCCCC)CCN(CC(O)CCCCCCCCCCCC)CC(O)CCCCCCCCCCCC)CC1)CC(O)CCCCCCCCCCCC (centres unmarked)	Positive Rate (EGFP)	%	92.3
CCCCCCCCCCC(O)CN(CCOCCOCCN(CCOCCOCCN(CC(O)CCCCCCCCCC)CC(O)CCCCCCCCCC)CCN1CCN(CCO)CC1)CC(O)CCCCCCCCCC (centres unmarked)	Positive Rate (EGFP)	%	62.8
CCCCCCCCCCCCCCC(O)CN(CCN(CCN1CCN(C)CC1)CCN(CC(O)CCCCCCCCCCCCCC)CC(O)CCCCCCCCCCCCCC)CC(O)CCCCCCCCCCCCCC (centres unmarked)	Positive Rate (EGFP)	%	59.9
CCCCCCCCCCC(O)CN(CCN(CCN1CCN(CCO)CC1)CCN(CC(O)CCCCCCCCCC)CC(O)CCCCCCCCCC)CC(O)CCCCCCCCCC (centres unmarked)	Positive Rate (EGFP)	%	63.9
CCCCCCCCCCC(O)CN(CCOCCN(CCOCCN(CC(O)CCCCCCCCCC)CC(O)CCCCCCCCCC)CCN1CCN(CCOCCN(CC(O)CCCCCCCCCC)CC(O)CCCCCCCCCC)CC1)CC(O)CCCCCCCCCC (centres unmarked)	Positive Rate (EGFP)	%	83.0
